# TARGET_DESC: Opioid receptors; mu & kappa (Homo sapiens) (UniProt P41145+P35372)
# Sequence (P35372 whole entry, looked up): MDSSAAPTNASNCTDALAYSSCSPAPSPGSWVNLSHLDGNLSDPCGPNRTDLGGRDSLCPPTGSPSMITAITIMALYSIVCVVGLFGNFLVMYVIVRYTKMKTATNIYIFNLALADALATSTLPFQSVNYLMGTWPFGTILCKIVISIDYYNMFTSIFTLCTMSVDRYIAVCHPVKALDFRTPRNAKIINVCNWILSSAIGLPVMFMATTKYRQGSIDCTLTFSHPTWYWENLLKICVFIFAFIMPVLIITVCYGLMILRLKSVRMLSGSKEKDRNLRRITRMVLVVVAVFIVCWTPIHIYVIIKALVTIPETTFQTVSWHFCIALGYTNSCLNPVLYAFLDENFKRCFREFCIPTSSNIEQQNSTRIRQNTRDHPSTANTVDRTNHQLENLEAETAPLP
# Sequence (P41145 whole entry, looked up): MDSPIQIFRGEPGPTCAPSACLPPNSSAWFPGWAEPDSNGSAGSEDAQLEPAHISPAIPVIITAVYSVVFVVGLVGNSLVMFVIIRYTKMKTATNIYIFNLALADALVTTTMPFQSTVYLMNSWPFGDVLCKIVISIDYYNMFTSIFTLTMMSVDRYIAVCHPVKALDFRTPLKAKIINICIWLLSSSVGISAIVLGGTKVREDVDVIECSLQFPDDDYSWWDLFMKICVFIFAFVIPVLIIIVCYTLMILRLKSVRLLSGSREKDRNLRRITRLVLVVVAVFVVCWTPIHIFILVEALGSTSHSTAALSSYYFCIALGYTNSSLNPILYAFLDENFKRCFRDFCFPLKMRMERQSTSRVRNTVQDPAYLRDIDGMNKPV
# ASSAY_COMMENT: Selectivity of compound for mu opioid receptor to that of kappa opioid receptor
# Assay type: protein assay
EXPERIMENTAL_READOUT: Selectivity

compound=CC(C)[C@@H](CN1CC[C@@](C)(c2cccc(O)c2)[C@@H](C)C1)NC(=O)[C@H]1Cc2ccccc2CN1 quantitative_result=369
compound=CC(C)[C@@H](CN1CC[C@@](C)(c2cccc(O)c2)[C@@H](C)C1)NC(=O)CCc1ccccc1 quantitative_result=2
compound="CC(C)[C@@H](CN1CC[C@@](C)(c2cccc(O)c2)[C@@H](C)C1)NC(=O)[C@H]1Cc2ccc(O)cc2CN1 [JDTIC]" quantitative_result=12
compound=CC(C)[C@@H](CN1CC[C@@](C)(c2cccc(O)c2)[C@@H](C)C1)NC(=O)CCc1ccc(O)cc1 quantitative_result=45
